// data source = PubChem BioAssay (NCI)

Test system: HOP-92 NSCLC
Assay: NCI-60 one-dose screen, 48 h (100 = growth as untreated, 0 = no growth, -100 = all killed)
Conditions: 10 µM unless noted
The panel holds about 83,000 compounds, 20% with a hit somewhere; the sample as a whole holds those more often.
Hi all, reminder that labels come from growth, split as low class (below 50%), middle class (50% to below 80%), high class (80% or more)

Q: Which category does the recorded growth put COc1ccc(/C=C/C(=O)c2cc3c(N)c(C(=O)Nc4cccc5ccccc45)sc3nc2C)cc1 in?
Ans: middle class

Q: Class (by measured growth) for COc1cc2ncnc(Nc3ccc(F)c(Cl)c3)c2cc1OCC(=O)N1CCN(c2ccccc2)CC1
Ans: high class

Q: Which band does NS(=O)(=O)c1ccc(N=Nc2c(O)n(Cc3ccccc3)c3ccc(Cl)cc23)cc1 fall in?
Ans: high class

Q: Field: class (growth) — entry: Cc1cn(-c2cc(NC(=O)c3cccc(C#Cc4cccc5[nH]nc(N)c45)c3)cc(C(F)(F)F)c2)cn1
Ans: low class

Q: For this compound, which bin applies? CC(=O)c1c(C)nc(SCC(=O)Nc2cccc(O)c2)n1-c1ccc(Cl)cc1
Ans: high class

Q: Kindly identify the class of CC1(C)CC(=O)C2=C(C1)N(c1ccc(OC(F)(F)F)cc1)C(N)=C(C#N)C2c1ccc(Br)cc1F (centres undefined) .
Ans: low class

Q: Note: place this compound into its band. Item: O=C(/C=C/c1ccccc1)Nc1ncc(Cc2ccccc2Cl)s1
Ans: middle class

Q: Hi, small favor: classify CCOc1ccc(NC(=O)CSc2oc(-c3ccccc3)nc2S(=O)(=O)c2ccc(C)cc2)cc1 by its growth when you get a moment.
Ans: low class

Q: Record C=C1CC[C@@H]2[C@](C)(COC(C)=O)[C@H](OC(C)=O)CC[C@@]2(C)[C@@H]1CC(Nc1ccc(S(=O)(=O)Nc2ncccn2)cc1)C1=CCOC1=O (some centres undefined) — which class?
Ans: middle class

Q: Where would CN1CCN(c2cc(Nc3cc(C4CC4)[nH]n3)nc(Nc3ccc(CC(=O)NCc4cccc(F)c4)cc3)n2)CC1 land among the classes by reported growth?
Ans: low class

Q: Which band does COC(=O)CC[C@@H]1O[C@@H](c2cccc(C(F)(F)F)c2)[C@@H](O)[C@H]1O fall in?
Ans: high class

Q: Dear colleague, I would appreciate it if you could identify the bin for COc1ccc(C(=O)Nc2cccc(-c3cc(=O)c4c(OC)c(OC)c(OC)cc4o3)c2)cc1 and reply at your convenience.
Ans: low class

Q: Quick check: band for C/C(Cc1ccc(Cl)cc1)=C(\c1ccc(O)cc1)c1ccc(Cl)cc1
Ans: high class

Q: Which class is correct for the following compound? N#Cc1c(-c2ccc(Cl)cc2)nc(NN2C(=O)c3ccccc3C2=O)nc1N1CCOCC1
Ans: high class

Q: Sort COc1ccc(-c2noc(C(=O)O)c2-c2cc(OC)c(OC)c(OC)c2)cc1 into one of the categories.
Ans: middle class

Q: Would you mind sorting COc1ccc(Nc2nc(-c3cc(O)c(C)c(C)c3O)cs2)cc1 into the appropriate category?
Ans: high class

Q: Could you place O=C(Nc1cccc2ccccc12)NC1CC1 in its proper category? Many thanks.
Ans: high class

Q: Category lookup for the compound C#CCOc1cccc(Nc2ncnc3cc(NC(=O)C=C)ccc23)c1
Ans: low class

Q: Please classify: CN1C(=O)/C(=C\c2nc([P+](c3ccccc3)(c3ccccc3)c3ccccc3)c(N3CCOCC3)o2)SC1=S
Ans: low class
